Molecular target: UniProtKB P41594
Sequence (P41594 21-1180 isoform P41594-2 limits assumed): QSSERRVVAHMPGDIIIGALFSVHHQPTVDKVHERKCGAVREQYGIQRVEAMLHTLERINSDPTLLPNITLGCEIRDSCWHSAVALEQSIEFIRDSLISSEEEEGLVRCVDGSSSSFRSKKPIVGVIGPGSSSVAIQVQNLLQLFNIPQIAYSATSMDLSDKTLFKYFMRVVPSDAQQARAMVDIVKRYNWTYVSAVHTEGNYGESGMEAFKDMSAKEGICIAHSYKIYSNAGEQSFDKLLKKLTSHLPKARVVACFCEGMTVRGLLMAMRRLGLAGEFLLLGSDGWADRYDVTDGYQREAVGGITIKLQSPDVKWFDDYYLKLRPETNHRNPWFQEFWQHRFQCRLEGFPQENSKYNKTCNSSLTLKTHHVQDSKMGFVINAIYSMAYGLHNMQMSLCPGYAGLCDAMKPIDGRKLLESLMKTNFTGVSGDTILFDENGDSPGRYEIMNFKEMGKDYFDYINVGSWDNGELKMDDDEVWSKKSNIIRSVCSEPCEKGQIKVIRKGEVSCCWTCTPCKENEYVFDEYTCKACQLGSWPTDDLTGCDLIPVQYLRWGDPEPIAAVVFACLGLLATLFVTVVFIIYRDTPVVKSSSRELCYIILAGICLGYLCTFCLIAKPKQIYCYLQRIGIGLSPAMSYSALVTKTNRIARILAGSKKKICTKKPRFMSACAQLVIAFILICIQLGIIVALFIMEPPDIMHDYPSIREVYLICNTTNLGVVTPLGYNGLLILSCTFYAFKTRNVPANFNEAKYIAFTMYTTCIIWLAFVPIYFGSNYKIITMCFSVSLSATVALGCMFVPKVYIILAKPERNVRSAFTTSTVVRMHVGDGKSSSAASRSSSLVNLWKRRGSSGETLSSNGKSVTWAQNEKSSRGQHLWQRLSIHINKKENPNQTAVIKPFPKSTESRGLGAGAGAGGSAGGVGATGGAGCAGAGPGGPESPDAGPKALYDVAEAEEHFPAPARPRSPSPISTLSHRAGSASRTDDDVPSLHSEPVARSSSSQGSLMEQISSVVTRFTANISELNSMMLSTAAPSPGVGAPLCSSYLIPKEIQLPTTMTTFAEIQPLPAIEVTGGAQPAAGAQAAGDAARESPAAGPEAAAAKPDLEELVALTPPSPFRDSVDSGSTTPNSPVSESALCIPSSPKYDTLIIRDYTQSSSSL
Assay: Cell-based functional Ca2+ mobilization assay (FDSS), potentiation of glutamate EC20 response, HEK293A cells transfected with human mGluR5a (H10H or H12H cell line)
Conditions: H10H cell line expressing recombinant human mGluR5; in presence of glutamate EC20; ** = compound is an antagonist; read-out: pEC50 (converted)
assayReadout: EC50 (nM)

Consider the reported EC50 for these molecules:
lineNotation	EC50 [nM]
COc1cccc(COc2cc3n(n2)CCN(C(=O)c2ccc(F)cc2)C3)c1	1410
O=C(c1ccc(F)cc1)N1CCn2nc(OCc3cccc(F)c3)cc2C1	89.1
N#Cc1cccc(COc2cc3n(n2)CCN(C(=O)c2cccc(F)c2)C3)c1	166
O=C(c1ccc(Cl)c(Cl)c1)N1CCn2nc(OCc3ccccc3)cc2C1	1230
O=C(c1cccc(Cl)c1)N1CCn2nc(OCc3cccc(F)c3)cc2C1	112
O=C(c1cc(Cl)cc(Cl)c1)N1CCn2nc(OCc3ccccc3)cc2C1	110
O=C(c1cncc(F)c1)N1CCn2nc(OCc3ccccc3)cc2C1	2000

[1] CC(C)(C)CCC(=O)N1CCn2nc(OCc3ccccc3)cc2C1
[2] CC(C)OCC(=O)N1CCn2nc(OCc3ccccc3)cc2C1
[3] O=C(c1cccc(F)c1)N1CCn2nc(OCc3ccccc3)cc2C1
List the 3 entries from lowest EC50 to highest EC50 value. A complete answer lists every label in the requested sequence.
3, 1, 2
